test: qHTS assay to identify small molecule agonists of the peroxisome proliferator-activated receptor delta (PPARd) signaling pathway - cell viability counter screen (AID 743211); conditions: PPARd-bla HEK293H viability, CellTiter-Glo luminescence, 17 h; series mostly up to 62.6 µM; note: nearly all actives have a fitted effect of over 55% in size
Inconclusive results are not listed. Calls of active or inactive are those of the source. Calls come from the whole dose curve; as a rule, active = well fitted cell-killing curve with a large enough effect in the repeat runs; inconclusive = weak or mixed curves; inactive = no such curve, though single readings can be large or run the other way.
Outcomes: active, inactive

MOLECULE: Clc1cc(Cl)nc(Cl)n1
DISCRETE_LABEL: inactive

MOLECULE: O=C1Cc2cc(Cl)ccc2N1
DISCRETE_LABEL: inactive

MOLECULE: Cc1ccccc1S
DISCRETE_LABEL: inactive

MOLECULE: O=C(O)CCCCCCCCCCCBr
DISCRETE_LABEL: inactive

MOLECULE: C=Cc1ccc(S(=O)(=O)O)cc1
DISCRETE_LABEL: inactive

MOLECULE: COc1ncnc(NS(=O)(=O)c2ccc(N)cc2)c1OC
DISCRETE_LABEL: inactive

MOLECULE: C[C@@H]1CC(=O)NN=C1c1ccc(NN=C(C#N)C#N)cc1
DISCRETE_LABEL: inactive

MOLECULE: CC1CC(OC(=O)C(O)c2ccccc2)CC(C)(C)N1C (centres undefined)
DISCRETE_LABEL: inactive

MOLECULE: Cc1c(C)c2c(c(C)c1OC(=O)CCC(=O)OCCO)CC[C@@](C)(CCC[C@H](C)CCC[C@H](C)CCCC(C)C)O2
DISCRETE_LABEL: active

MOLECULE: c1ccc2c(c1)CCc1ccccc1N2
DISCRETE_LABEL: inactive

MOLECULE: Oc1cc2c(cc1O)[C@H]1c3ccc(O)c(O)c3OC[C@@]1(O)C2
DISCRETE_LABEL: inactive

MOLECULE: C[C@@H](O[C@H]1OCCN(Cc2n[nH]c(=O)[nH]2)[C@H]1c1ccc(F)cc1)c1cc(C(F)(F)F)cc(C(F)(F)F)c1
DISCRETE_LABEL: active

MOLECULE: CC[N+](CC)(CCNC(=O)C(=O)NCC[N+](CC)(CC)Cc1ccccc1Cl)Cc1ccccc1Cl
DISCRETE_LABEL: inactive

MOLECULE: Cc1cc(O)c(C)c(C)c1O
DISCRETE_LABEL: inactive

MOLECULE: O=C1c2ccccc2C(=O)C1(O)O
DISCRETE_LABEL: inactive

MOLECULE: CC=C(Cl)Cl
DISCRETE_LABEL: inactive

MOLECULE: CC(C)c1nc(CN(C)C(=O)N[C@H](C(=O)N[C@@H](Cc2ccccc2)C[C@H](O)[C@H](Cc2ccccc2)NC(=O)OCc2cncs2)C(C)C)cs1
DISCRETE_LABEL: active

MOLECULE: CNC(=O)c1cnn(-c2nc(N)c3ncn([C@@H]4O[C@H](CO)[C@@H](O)[C@H]4O)c3n2)c1
DISCRETE_LABEL: inactive

MOLECULE: CC(O)c1ccccc1 (centres undefined)
DISCRETE_LABEL: inactive

MOLECULE: CC(C)(C)CC(=O)OCC(=O)[C@@]1(O)CC[C@H]2[C@@H]3CCC4=CC(=O)C=C[C@]4(C)[C@H]3[C@@H](O)C[C@@]21C
DISCRETE_LABEL: inactive

MOLECULE: C[C@@H](CN(C)C)CN1c2ccccc2Sc2ccccc21
DISCRETE_LABEL: active

MOLECULE: CC(=O)N/N=C/c1ccc([N+](=O)[O-])o1
DISCRETE_LABEL: inactive

MOLECULE: CCCCCCCCCCCCCCN(CCO)CCO
DISCRETE_LABEL: active

MOLECULE: Oc1c(I)cc(I)c2cccnc12
DISCRETE_LABEL: inactive
